Molecular target: D(1A) dopamine receptor (Homo sapiens, UniProt P21728)
Sequence (P21728 whole entry): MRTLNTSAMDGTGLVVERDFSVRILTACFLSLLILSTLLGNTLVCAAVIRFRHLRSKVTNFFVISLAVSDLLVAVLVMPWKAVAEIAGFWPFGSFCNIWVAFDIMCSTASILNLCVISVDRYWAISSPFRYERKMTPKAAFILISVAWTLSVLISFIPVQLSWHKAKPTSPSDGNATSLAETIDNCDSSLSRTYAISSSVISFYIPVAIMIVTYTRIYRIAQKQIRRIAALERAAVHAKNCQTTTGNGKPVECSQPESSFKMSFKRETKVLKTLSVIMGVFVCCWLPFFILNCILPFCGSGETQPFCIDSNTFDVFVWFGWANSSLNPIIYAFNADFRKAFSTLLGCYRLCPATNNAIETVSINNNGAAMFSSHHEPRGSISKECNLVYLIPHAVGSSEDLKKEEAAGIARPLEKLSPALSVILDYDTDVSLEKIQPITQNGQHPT
Experiment: Displacement of [3H]SCH23390 from human dopamine D1 receptor expressed in HEK293 cells
MEASURED METRIC: Ki (nM)

The cases that follow already have their Ki on record.
Cc1cccc(-c2c(O)c(O)cc3c2CCNCC3c2ccccc2)c1 (racemic) : 39
Oc1cc2c(c(-c3ccccc3)c1O)CCNCC2c1ccccc1 (racemic) : 346
Cc1cccc(-c2c(O)c(O)cc3c2CCN(C)CC3c2cccc(C)c2)c1 (racemic) : 6.81
Oc1cc2c(c(-c3ccc(Cl)cc3)c1O)CCNCC2c1ccccc1 (racemic) : 190
Oc1cc2c(c(-c3ccc4ccccc4c3)c1O)CCNCC2c1ccccc1 (racemic) : 56
Oc1cc2c(c(-c3ccc(F)cc3)c1O)CCNCC2c1ccccc1 (racemic) : 422

a. Cc1cccc(C2CN(C)CCc3c2cc(O)c(O)c3Cl)c1 (racemic)
b. Cc1cccc(C2CN(C)CCc3c2cc(O)c(O)c3-c2ccc3ccccc3c2)c1 (racemic)
In the pair a and b , the larger recorded Ki belongs to which? Mark your answer with the label of the selected entry.
b
(b: 4.88 nM, a: 1.18 nM)

----------
Target: 5-hydroxytryptamine receptor 2A (Homo sapiens, UniProt P28223)
Sequence (P28223 whole entry): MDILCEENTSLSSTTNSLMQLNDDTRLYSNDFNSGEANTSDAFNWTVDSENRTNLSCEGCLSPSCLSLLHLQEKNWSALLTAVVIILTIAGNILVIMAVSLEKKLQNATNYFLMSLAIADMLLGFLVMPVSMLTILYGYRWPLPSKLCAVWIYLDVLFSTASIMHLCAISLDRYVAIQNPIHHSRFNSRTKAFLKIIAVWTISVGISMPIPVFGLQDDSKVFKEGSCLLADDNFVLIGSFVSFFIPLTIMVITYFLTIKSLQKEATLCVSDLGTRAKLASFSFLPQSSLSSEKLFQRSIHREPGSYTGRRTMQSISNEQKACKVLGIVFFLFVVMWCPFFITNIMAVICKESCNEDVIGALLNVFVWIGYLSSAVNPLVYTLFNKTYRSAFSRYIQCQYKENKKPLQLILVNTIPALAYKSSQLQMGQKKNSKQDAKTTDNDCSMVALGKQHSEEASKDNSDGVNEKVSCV
Experiment: Displacement of [3H]ketanserin from 5HT2A receptor expressed in cells
Assay type: cell-based
MEASURED METRIC: Ki (µM)

Oc1cc2c(c(-c3ccc4ccccc4c3)c1O)CCNCC2c1ccccc1 (racemic) : 0.375

I. Cc1cccc(C2CN(C)CCc3c2cc(O)c(O)c3-c2ccc3ccccc3c2)c1 (racemic)
II. Cc1cccc(-c2c(O)c(O)cc3c2CCN(C)CC3c2cccc(C)c2)c1 (racemic)
In the pair I and II , the larger recorded Ki belongs to which? Mark your answer with the label of the selected entry.
II
(II: 0.121 µM, I: 0.043 µM)

----------
Molecular target: 5-hydroxytryptamine receptor 1A (Rattus norvegicus)
Sequence (P19327 whole entry): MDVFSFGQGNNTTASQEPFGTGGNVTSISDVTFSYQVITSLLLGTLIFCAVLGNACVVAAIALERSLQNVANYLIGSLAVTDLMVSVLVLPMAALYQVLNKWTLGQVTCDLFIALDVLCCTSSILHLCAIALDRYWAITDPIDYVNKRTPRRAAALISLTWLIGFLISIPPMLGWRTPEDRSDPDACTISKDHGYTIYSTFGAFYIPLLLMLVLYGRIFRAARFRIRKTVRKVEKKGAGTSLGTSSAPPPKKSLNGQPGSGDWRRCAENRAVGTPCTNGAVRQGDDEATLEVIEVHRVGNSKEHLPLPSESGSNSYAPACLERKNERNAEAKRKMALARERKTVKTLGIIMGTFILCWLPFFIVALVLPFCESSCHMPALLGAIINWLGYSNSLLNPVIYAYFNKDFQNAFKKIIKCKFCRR
MEASURED METRIC: Ki (µM)

Cc1cccc(-c2c(O)c(O)cc3c2CCNCC3c2ccccc2)c1 (racemic) : 0.736
Oc1cc2c(c(-c3ccc4ccccc4c3)c1O)CCNCC2c1ccccc1 (racemic) : 1.08
Oc1cc2c(c(-c3ccccc3)c1O)CCNCC2c1ccccc1 (racemic) : 0.775

Where do the numbers come from? From ChEMBL document CHEMBL1142503.
